Entries and their IC50
Test: Antiproliferative activity against human NALM6 cells after 48 to 72 hrs by trypan blue dye exclusion assay and MTT assay
Type: functional, cell-based
Settings: NALM-6
Express it in µM; write the number only.

Qu. Requested read-out: IC50. Entry: COC(=O)c1ccc(C2SCC(=O)N2c2ccc(N3CCN(S(=O)(=O)c4ccc(OC)cc4)CC3)cn2)c(OC)c1 (stereo not drawn)
Ans. 29.4

Qu. Check COC(=O)c1ccc(C2SCC(=O)N2c2ccc(N3CCN(Cc4cccc(C)c4)CC3)cn2)c(OC)c1 (stereo not drawn) too.
Ans. 27.3

Qu. COC(=O)c1ccc(C2SCC(=O)N2c2ccc(N3CCN(S(=O)(=O)c4cc(Cl)ccc4Cl)CC3)cn2)c(OC)c1 (stereo not drawn) ?
Ans. 27.4

Qu. And for COC(=O)c1ccc(C2SCC(=O)N2c2ccc(N3CCN(S(=O)(=O)c4ccccc4)CC3)cn2)c(OC)c1 (stereo not drawn) ?
Ans. 48.4

Qu. And for CC(=O)O[C@H]1C(=O)[C@@]2(C)[C@H]([C@H](OC(=O)c3ccccc3)[C@]3(O)C[C@H](OC(=O)[C@H](O)[C@@H](NC(=O)c4ccccc4)c4ccccc4)C(C)=C1C3(C)C)[C@]1(OC(C)=O)CO[C@@H]1C[C@@H]2O ?
Ans. 0.0041

====

Assay: Antiproliferative activity against human NALM6 cells after 48 to 72 hrs by trypan blue dye exclusion assay and MTT assay
Type: functional, cell-based
Settings: NALM-6
pIC50: −log10 of the molar value.
# Lookup of reported pIC50 keyed by entry

Sample records with pIC50:
{"columns": ["Compound", "pIC50"],
 "data": [
  ["COC(=O)c1ccc(C2SCC(=O)N2c2ccc(N3CCN(S(=O)(=O)c4ccc([N+](=O)[O-])cc4)CC3)cn2)c(OC)c1 (centres undefined)", "< 4.00"],
  ["COC(=O)c1ccc(C2SCC(=O)N2c2ccc(N3CCN(Cc4cccc([N+](=O)[O-])c4)CC3)cn2)c(OC)c1 (centres undefined)", "< 4.00"],
  ["COC(=O)c1ccc(C2SCC(=O)N2c2ccc(N3CCN(Cc4cc(OC)c(OC)c(OC)c4)CC3)cn2)c(OC)c1 (centres undefined)", "< 4.00"]
]}

Qu. Would you kindly share the measured pIC50 for COC(=O)c1ccc(C2SCC(=O)N2c2ccc(N3CCNCC3)cn2)c(OC)c1 (centres undefined) ?
Ans. 5.01

====

pIC50 overview
Experiment: Antiproliferative activity against human NALM6 cells after 48 to 72 hrs by trypan blue dye exclusion assay and MTT assay
Type: functional, cell-based
Conditions: NALM-6
pIC50: −log10 of the molar value.

{"columns": ["Compound", "pIC50"],
 "data": [
  ["COC(=O)c1ccc(C2SCC(=O)N2c2ccc(N3CCN(S(=O)(=O)c4ccc(F)cc4)CC3)cn2)c(OC)c1 (stereo not drawn)", "< 4.00"],
  ["COC(=O)c1ccc(C2SCC(=O)N2c2ccc(N3CCN(Cc4ccc(Cl)c(Cl)c4)CC3)cn2)c(OC)c1 (stereo not drawn)", "< 4.00"]
]}

Now for the compound whose pIC50 we want.
Qu. May I ask what pIC50 has been recorded for COC(=O)c1ccc(C2SCC(=O)N2c2ccc(N3CCN(S(=O)(=O)c4c(C)cc(C)cc4C)CC3)cn2)c(OC)c1 (stereo not drawn) ?
Ans. < 4.00
